- Tested on: HIV-1
- Protocol Text: Inhibition of HIV-1-induced cytopathic effect (CPE) in MT-4 cells
- Format: cell-based, HIV-1 (LAV-1) in human MT-4 cells
- Measurement Conditions: MT-4 cells; 7200 min
Listed next: entries and their corresponding r = CC0/IC100.
Measurement Type: r = CC0/IC100

molecule="CC(=O)OCC1=C[C@H]2[C@@H]3C(C)(C)[C@]3(OC(C)=O)[C@H](OC(C)=O)[C@@H](C)[C@]2(O)[C@@H]2C=C(C)[C@H](O)[C@@]2(O)C1 [Compound 15]" measurement_type="r = CC0/IC100" result_operator== test_result=2.00
molecule="CCCCC/C=C\\C/C=C\\CCCCCCCC(=O)OCC1=C[C@H]2[C@@H]3C(C)(C)[C@]3(OC(C)=O)[C@H](OC(C)=O)[C@@H](C)[C@]2(O)[C@@H]2C=C(C)C(=O)[C@@]2(O)C1 [Compound 13, Phorbol-12,13-diacetate-20-linoleate]" measurement_type="r = CC0/IC100" result_operator== test_result=8.00
molecule="C/C=C(\\C)C(=O)O[C@@H]1[C@@H](C)[C@@]2(O)[C@@H](C=C(CO)C[C@]3(O)C(=O)C(C)=C[C@@H]23)[C@@H]2C(C)(C)[C@]12OC(=O)C(C)CC (stereo partly drawn) [Compound 5]" measurement_type="r = CC0/IC100" result_operator== test_result=2.00
molecule="CCCCCCCCCCCC(=O)O[C@@]12[C@H](OC(=O)C(C)CC)[C@@H](C)[C@@]3(O)[C@@H](C=C(CO)C[C@]4(O)C(=O)C(C)=C[C@@H]34)[C@@H]1C2(C)C (stereo partly drawn) [Compound 7]" measurement_type="r = CC0/IC100" result_operator== test_result=4.01
molecule="CC(=O)O[C@@]12[C@H](O)[C@@H](C)[C@@]3(O)[C@@H](C=C(CO)C[C@]4(O)C(=O)C(C)=C[C@@H]34)[C@@H]1C2(C)C [Compound 10, 13-O-Acetylphorbol]" measurement_type="r = CC0/IC100" result_operator=> test_result=8.00
molecule="CCCCCCCCCCCCCC(=O)O[C@@H]1[C@@H](C)[C@@]2(O)[C@@H](C=C(COC(C)=O)C[C@]3(O)C(=O)C(C)=C[C@@H]23)[C@@H]2C(C)(C)[C@]12OC(C)=O [Compound 14]" measurement_type="r = CC0/IC100" result_operator== test_result=4.01

###

Listed next: entries and their corresponding MCC at 120 h.
- Protocol Text: Cell growth / viability of MT-4 cells (cytotoxicity)
- Assay type: cell-based
- Measurement Conditions: human, day 5, read-out: CC0 (concentration that reduces viability of MT-4 cells; minimum cytotoxic concentration)
Measurement Type: MCC at 120 h (µg/mL)

compound="CC(=O)OCC12CC3(O)C(=O)C1(C)C1C3C3(O)C(C)C(OC(C)=O)C4(OC(C)=O)C(C3C12)C4(C)C (centres unmarked) [Compound 24, Lumiphorbol-12,13,20-triacetate]" measurement_type="MCC at 120 h" result_operator== test_result=500
compound="CCCCCCCCCC(=O)O[C@@H]1[C@@H](C)[C@@]2(O)[C@@H](C=C(CO)C[C@]3(O)C(=O)C(C)=C[C@@H]23)[C@@H]2C(C)(C)[C@]12OC(=O)C(C)CC (some centres unmarked)" measurement_type="MCC at 120 h" result_operator== test_result=31.3
compound="CCCC(=O)OCC1=C[C@H]2[C@@H]3C(C)(C)[C@]3(OC(=O)CCC)[C@H](OC(=O)CCC)[C@@H](C)[C@]2(O)[C@@H]2C=C(C)C(=O)[C@]2(O)C1 [Compound 22, 4α-Phorbol-12,13,20-tributyrate]" measurement_type="MCC at 120 h" result_operator== test_result=62.5
compound=CC1=C[C@@H]2[C@@H](CC(CO)=C[C@H]3[C@@H]4C(C)(C)[C@]4(O)[C@H](O)[C@@H](C)[C@]23O)C1=O measurement_type="MCC at 120 h" result_operator== test_result=500
compound=CC(=O)O[C@@]12[C@H](O)[C@@H](C)[C@@]3(O)[C@@H](C=C(CO)C[C@]4(O)C(=O)C(C)=C[C@@H]34)[C@@H]1C2(C)C measurement_type="MCC at 120 h" result_operator=> test_result=1000

###

- Test system: HIV-1
- Protocol Text: Inhibition of HIV-1-induced cytopathic effect (CPE) in MT-4 cells
- Format: cell-based, HIV-1 (LAV-1) in human MT-4 cells
- Measurement Conditions: MT-4 cells; 7200 min
- Method: In the experiments, MT-4 cells were used. […] The inhibitory effect of test compounds on HIV-1-induced cytopathogenicity was measured by the method of Harada, Koyanagi & Yamamoto (1985). […] On day 5, the IC100 of the test compound required for completely preventing HIV-1-induced CPE(IC) was determined through an optical microscope and the cell growth was examined to give the CC0 that reduces the viability of MT-4 cells. […]
Listed next: entries and their corresponding r = CC0/IC100.
Measurement Type: r = CC0/IC100

compound=C/C=C(\C)C(=O)O[C@@]12[C@H](O)[C@@H](C)[C@@]3(O)[C@@H](C=C(COC(=O)CCCCCCC/C=C\C/C=C\CCCCC)C[C@]4(O)C(=O)C(C)=C[C@@H]34)[C@@H]1C2(C)C measurement_type="r = CC0/IC100" test_result=8.00
compound="CC(=O)OCC1=C[C@H]2[C@@H]3C(C)(C)[C@]3(OC(C)=O)[C@H](OC(C)=O)[C@@H](C)[C@]2(OC(C)=O)[C@@H]2C=C(C)C(=O)[C@@]2(OC(C)=O)C1 [Compound 17, Phorbol-4,9,12,13,20-pentaacetate]" measurement_type="r = CC0/IC100" test_result=2.00
compound="CCCCCCCCCC(=O)O[C@@]12[C@H](OC(C)=O)[C@@H](C)[C@@]3(O)[C@@H](C=C(CO)C[C@]4(O)C(=O)C(C)=C[C@@H]34)[C@@H]1C2(C)C [Compound 6, 12-O-Acetylphorbol-13-decanoate]" measurement_type="r = CC0/IC100" test_result=8220
compound="CCCCCCCCCC(=O)O[C@@H]1[C@@H](C)[C@@]2(O)[C@@H](C=C(CO)C[C@]3(O)C(=O)C(C)=C[C@@H]23)[C@@H]2C(C)(C)[C@]12OC(=O)C(C)CC (stereo partly drawn)" measurement_type="r = CC0/IC100" test_result=4.01
compound=CCCCC/C=C\C/C=C\CCCCCCCC(=O)OCC1=C[C@H]2[C@@H]3C(C)(C)[C@]3(OC(C)=O)[C@H](O)[C@@H](C)[C@]2(O)[C@@H]2C=C(C)C(=O)[C@@]2(O)C1 measurement_type="r = CC0/IC100" test_result=4.01
compound="CO[C@]12CC(COC(C)=O)=C[C@H]3[C@@H]4C(C)(C)[C@]4(OC(C)=O)[C@H](OC(C)=O)[C@@H](C)[C@]3(O)[C@@H]1C=C(C)C2=O [Compound 16, 4-O-Methylphorbol-12,13,20-triacetate]" measurement_type="r = CC0/IC100" test_result=3.99
compound="CC(=O)OCC1=C[C@H]2[C@@H]3C(C)(C)[C@]3(OC(C)=O)[C@H](OC(C)=O)[C@@H](C)[C@]2(O)[C@@H]2C=C(C)C(=O)[C@]2(O)C1 [Compound 21, 4α-Phorbol-12,13,20-triacetate]" measurement_type="r = CC0/IC100" test_result=2.00
compound="CCCCCCCCCCCCCC(=O)O[C@@H]1[C@@H](C)[C@@]2(O)[C@@H](C=C(CO)C[C@]3(O)C(=O)C(C)=C[C@@H]23)[C@@H]2C(C)(C)[C@]12OC(C)=O [Compound 8, reference compound]" measurement_type="r = CC0/IC100" test_result=65200
compound="C=C(C)C1C(OC(C)=O)=CC(C)C2(O)C1C=C(COC(=O)CCCCCCC/C=C\\C/C=C\\CCCCC)CC1(O)C(=O)C(C)=CC12 (stereo not drawn)" measurement_type="r = CC0/IC100" test_result=16.0

###

- Protocol Text: Cell growth / viability of MT-4 cells (cytotoxicity)
- Type: cell-based
- Measurement Conditions: human, day 5, read-out: CC0 (concentration that reduces viability of MT-4 cells; minimum cytotoxic concentration)
The threshold is 500 µg/mL. Values of MCC at 120 h beneath it are tagged condition met; values meeting or exceeding it are tagged condition not met.

compound=CC1=C[C@H]2[C@@]3(O)[C@H](C)[C@@H](O)[C@]4(O)[C@H]([C@@H]3C=C(CO)C[C@]2(O)C1=O)C4(C)C label_class="condition not met"
compound="C=C(C)C1C(OC(C)=O)=CC(C)C2(O)C1C=C(COC(=O)CCCCCCC/C=C\\C/C=C\\CCCCC)CC1(O)C(=O)C(C)=CC12 (centres unmarked)" label_class="condition met"
compound=C/C=C(\C)C(=O)O[C@@]12[C@H](O)[C@@H](C)[C@@]3(O)[C@@H](C=C(COC(=O)CCCCCCC/C=C\C/C=C\CCCCC)C[C@]4(O)C(=O)C(C)=C[C@@H]34)[C@@H]1C2(C)C label_class="condition met"
compound="CCCCCCCCCCCCCC(=O)O[C@@H]1[C@@H](C)[C@@]2(O)[C@@H](C=C(CO)C[C@]3(O)C(=O)C(C)=C[C@@H]23)[C@@H]2C(C)(C)[C@]12OC(C)=O [Compound 8, reference compound]" label_class="condition met"
